Tested on: T-47D breast
assay notes: NCI tumour cell line growth inhibition, 48 h; in the data active = GI50 below about 0.43 µM; inactive = the rest
The categories you may choose from are active, inactive

Past entries and their recorded results:
compound: COc1ccc(Cn2cc3c(c2)-c2oncc2CC3)cc1OC
experimental target: T-47D breast
category label: active

compound: NC(=O)CC1(O)C=C(Br)C(=O)C(Br)=C1
experimental target: T-47D breast
category label: inactive

compound: COc1cc(/C=C/C(=O)N2CCC=CC2=O)cc(OC)c1OC
experimental target: T-47D breast
category label: inactive

compound: C[C@@H](NC(=O)c1ncnc(N)c1Cl)c1ncc(C(=O)Nc2cc(C(F)(F)F)c(Cl)cn2)s1
experimental target: T-47D breast
category label: inactive

Kindly provide the recorded test outcome for the following compound: CCN(CC)CCC(CNc1ccnc2cc(Cl)ccc12)c1ccccc1 (stereo not given) inactive
